The origin of these recorded values is patent US20110135636A1.

- target_under_test: T1, wild type full length EGFR purified from A431 cells (human, UniProt P00533 25-1210)
- T1 construct: mature; Bought; coated on ELISA wells; also called full length EGFR receptor antigen; Sigma E3641
- method_notes: competition ELISA, competitor Ab-2
- Set-up: concentration or dose not given beside the values
The entries below come with measured % inhibition values attached.
Quote the value and follow it with the unit of measurement.

Take a look at these entries with their results.
[
  {
    "binder": "antibody 1030 (antibody, human IgG1, kappa, V domains shown, Chimeric IgG1 kappa) VH: EVQLVESGGGLVKPGGSLKLSCAASGFTFSSYALSWVRQTPERRLEWVASISGVGSTYFPDSVKGRFTMSRDNARNILYLQMSSLRSEDTAMYYCARGSDGYFYAMDYWGQGTSVTVSS VL: DIVLTQSPASLAVSLGQRATISCRASKSVSTSGYSFMHWYQLKPGQPPKLLIYLASNLESGVPARFSGSGSGTDFTLNIHPVEEEDAATYYCQHSREFPLTFGGGTKLEIKR",
    "% inhibition": "-1%"
  },
  {
    "binder": "antibody 1257 (antibody, human IgG1, kappa, V domains shown, Chimeric IgG1 kappa) VH: EVQLQQSGPELVKPGASVKIPCKTSGYTFTDYNMAWVKQSHGKSLEWIGDIIPNNGGAIYNQKFKGKATLTVDKSSSTASMELRSLTSEDTAVYFCARKNIYYRYDGAGALDYWGQGTSVTVSS VL: QIVLTQSPAIMSASPGEKVTMTCSASSSVSYIYWYQQKPGSSPRLLIYDASNLASGVPVRFSGSGSGTSYSLTISRMEAEDAATYYCQQWSSYPITFGSGTKLEIKR",
    "% inhibition": "37%"
  },
  {
    "binder": "antibody 1320 (antibody, human IgG1, kappa, V domains shown, Chimeric IgG1 kappa) VH: QVQLQQPGAELVKPGASMKLSCKASGYTFTNYWMHWVKQRPGQGLEWIGEINPSNGRTNYNEKFKSKATLTVDKSSSTAYMQLSSLTSEDSGVYYCAKGGNYYDYDWDYWGQGTTLTVSS VL: DIQMTQTTSSLSASLGDRVTISCSASQDISNYLNWYQQKPDGTVKLLIYHTSTLHSGVPSRFSGSGSGTDYSLTISNLEPEDIATYYCQQYSKLPWTFGGGTKLEIKR",
    "% inhibition": "-9%"
  },
  {
    "binder": "antibody 1260 (antibody, human IgG1, kappa, V domains shown, Chimeric IgG1 kappa) VH: QVQLKESGPGLVAPSQSLSITCTVSGFSLTTYGVHWVRQPPGKGLEWLGVIWAGGSTNYNSALMSRLSIKKDNSKSQVFLKMNSLQTDDTAMYYCARAYGYNFDYWGQGTTLTVSS VL: DIQMTQTTSSLSASLGDRVTISCSASQGITNYLNWYQQKPDGTVKLLIYYSSSLHSGVPSRFSGSGSGTDYSLTISNLEPEDIATYYCQQYSEIPYTFGGGTKLELKR",
    "% inhibition": "8%"
  }
]

Could you now consider this next binder?
-- ask Recall and state the measured % inhibition for antibody 1284 (antibody, human IgG1, kappa, V domains shown, Chimeric IgG1 kappa) VH: QVQLQQPGAELVKPGASVKLSCKASGYTFTSDWMHWMKQRPGQGLEWIGEINPSNGRSSYNEKFKSKATLTVDKSSSTAYMQLSSLTSEDSAVYYCARIGGIYVETYWGQGTLVTVSS VL: DIVLTQSPASLAVSLGQRATISCRASQSVSTSTYSYMHWYQQKSGQPPKLLIKYASNLESGVPARFSGSGSGTDFTLNIHPVEEEDTATYYCQHSWEIPWTFGGGTKLEIKR .
-- reply 26%
